A collection of compounds and their measured Emax
# measurement_target: Mm_Fpr2 (Mus musculus, UniProt O88536)
# Construct: expressed in transfected cells
# Sequence (O88536 1-351): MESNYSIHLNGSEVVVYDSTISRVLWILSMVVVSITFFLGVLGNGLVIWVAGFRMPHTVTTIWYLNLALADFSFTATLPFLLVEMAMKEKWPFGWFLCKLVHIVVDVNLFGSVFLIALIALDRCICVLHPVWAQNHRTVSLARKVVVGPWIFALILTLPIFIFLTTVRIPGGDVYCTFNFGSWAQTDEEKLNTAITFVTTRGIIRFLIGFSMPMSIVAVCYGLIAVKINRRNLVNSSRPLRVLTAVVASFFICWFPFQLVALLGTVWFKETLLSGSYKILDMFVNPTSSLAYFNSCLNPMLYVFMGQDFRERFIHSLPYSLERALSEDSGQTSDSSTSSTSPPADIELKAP
# assay_method_text: BRET receptor-RLuc8 interaction with Venus-mGsi
# Assay type: cell-based
Where a SMILES comes first, the peptide text is derived from it. The star is where a group is joined. Palmitoyl = CCCCCCCCCCCCCCCC(=O)*; For = O=C*
Numeric only. Scale: %

CSCC[C@H](NC(=O)[C@@H](NC(=O)[C@H](CCSC)NC(=O)[C@H](Cc1ccc(O)cc1)NC(=O)[C@H](CCCCN)NC(=O)[C@@H](N)Cc1c[nH]c2ccccc12)C(C)C)C(N)=O [WKYMVM]; 87.9

stdin: Sample CSCC[C@H](NC=O)C(=O)N[C@@H](CC(C)C)C(=O)N[C@@H](Cc1ccccc1)C(=O)N[C@@H](CCCCN)C(=O)O [fMLFK, fMet-Leu-Phe-Lys] (For-MLFK-OH) — what was its Emax?
stdout: 82.7

stdin: Tell me the measured Emax of CSCC[C@H](NC=O)C(=O)N[C@@H](CC(C)C)C(=O)N[C@@H](Cc1ccccc1)C(=O)O [fMLF, fMet-Leu-Phe] , please.
stdout: 13.2

stdin: If you can, please state the reported Emax value of CC[C@H](C)[C@H](NC(=O)[C@H](CC(C)C)NC(=O)[C@H](CCCCN)NC(=O)[C@H](CCSC)NC(=O)[C@H](CC(C)C)NC(=O)[C@@H]1CCCN1C(=O)[C@H](CC(N)=O)NC(=O)[C@@H](NC(=O)[C@H](CCCCN)NC(=O)[C@H](CCCNC(=N)N)NC(=O)[C@H](CCSC)NC(=O)[C@@H]1CCCN1C(=O)[C@@H](NC(=O)[C@H](CCSC)NC=O)[C@@H](C)O)[C@@H](C)CC)C(=O)N[C@@H](CC(N)=O)C(=O)O [MCT-2, Formyl-MTPMRKINPLMKLIN] (For-MTPMRKINPLMKLIN-OH) .
stdout: 25

stdin: What value of Emax has been reported for the following compound? COc1cc(F)c([C@@H]2CNC(=O)[C@H]2NC(=O)Nc2ccccc2)c(F)c1 [BMS-986235]
stdout: 104

stdin: If you can, please state the reported Emax value of CCCCCCCCCCCCCCCC(=O)N[C@@H](CCCCN)C(=O)N[C@H](C(=O)N[C@@H](Cc1c[nH]cn1)C(=O)N[C@@H](CCCCN)C(=O)N[C@@H](CCCCN)C(=O)NCC(=O)N[C@@H](CCSC)C(=O)N[C@H](C(=O)N[C@@H](CCCCN)C(=O)N[C@@H](CO)C(=O)O)[C@@H](C)CC)[C@@H](C)CC [F2Pal10] (Palmitoyl-KIHKKGMIKS-OH) .
stdout: 24.2
